targetEntity: T1, Human CD19-his protein (human, UniProt P15391 20-291)
T1 construct: bought protein; also called human CD19 protein; recombinant human CD19-His; not shown: His tag
T1 sequence (looked up): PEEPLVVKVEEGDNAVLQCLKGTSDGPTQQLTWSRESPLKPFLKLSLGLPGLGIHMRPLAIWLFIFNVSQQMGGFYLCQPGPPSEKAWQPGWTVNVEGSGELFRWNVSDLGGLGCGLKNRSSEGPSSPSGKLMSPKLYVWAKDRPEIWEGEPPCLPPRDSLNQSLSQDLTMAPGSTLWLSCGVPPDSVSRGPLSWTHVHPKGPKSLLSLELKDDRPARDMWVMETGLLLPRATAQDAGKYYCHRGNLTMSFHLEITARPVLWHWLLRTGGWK
assayProtocol: ELISA, antibody at 100 nM
quantity: OD450
Respond using a number only.

# binder, OD450
rows = [
    ("F3.121.4 (antibody, human IgG1, V domains shown, human-murine chimeric antibody, human IgG1; also called chimeric antibody F3.121.4) VH: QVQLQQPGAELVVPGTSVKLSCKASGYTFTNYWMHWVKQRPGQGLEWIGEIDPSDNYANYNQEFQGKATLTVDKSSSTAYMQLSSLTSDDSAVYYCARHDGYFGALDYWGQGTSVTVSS VL: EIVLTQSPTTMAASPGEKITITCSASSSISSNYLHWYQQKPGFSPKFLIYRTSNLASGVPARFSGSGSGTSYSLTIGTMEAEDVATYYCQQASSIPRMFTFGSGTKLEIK", 0.82),
]

Now consider a different binder.
Q: Read the entry F3.40.14 (antibody, human IgG1, V domains shown, human-murine chimeric antibody, human IgG1) VH: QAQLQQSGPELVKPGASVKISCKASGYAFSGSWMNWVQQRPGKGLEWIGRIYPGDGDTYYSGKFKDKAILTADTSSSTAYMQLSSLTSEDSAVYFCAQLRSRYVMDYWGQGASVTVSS VL: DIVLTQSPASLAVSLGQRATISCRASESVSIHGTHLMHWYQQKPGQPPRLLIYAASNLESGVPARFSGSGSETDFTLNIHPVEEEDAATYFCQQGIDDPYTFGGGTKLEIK and write its reported OD450.
A: 1.19

Cited source for all entries: patent US20250042994A1
